// data source = the supplement of paper PMC10567573

Kindly state protein stability index for each of the entries shown.
B1: EHMT1 (parent)
chain: EEINKNISDFGRQQLLPPFPSLHQ

variants of: B1; assay: protein stability index of a GFP-peptide fusion (GPS, HEK-293T) (PSI 1-6); higher = more stable; details: c terminus: a fixed tail appended;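 note: lentivirally expressed fusions sorted by FACS into six bins by GFP to DsRed ratio, PSI derived from sequencing read proportions per bin multiplied by bin number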
One number for each entry.

Check out these entries, answers already filled in.
(Q) Give its protein stability index value. Item: G11L
(A) 1.88

(Q) Give its protein stability index value. Item: H23C
(A) 2.66

(Q) Give its protein stability index value. Item: F19I
(A) 3.61

(Q) Give its protein stability index value. Item: Q14T
(A) 2.45

(Q) Give its protein stability index value. Item: Q24H
(A) 2.43

(Q) Give its protein stability index value. Item: L22T
(A) 3.85

(Q) Give its protein stability index value. Item: Q13E
(A) 3.38

(Q) Give its protein stability index value. Item: L15I
(A) 2.85

Count: 5. Required value per item: protein stability index.
1. E2T
2. N4R
3. Q13K
4. F19Y
5. G11P

(A)
1: 2.85; 2: 2.73; 3: 2.59; 4: 3.29; 5: 2.87
